Where do these numbers come from? They come from patent US20260297060A1.

experimentSummary: Pharmacokinetics after 21 days dosing in the efficacy study (plasma, tumor and brain concentrations; plasma AUC at steady state), Example 14
Assay type: in vivo, female BALB/c nude mice
measurementParameters: mouse, plasma, po; 2 mg/kg p.o. TID x 21 days; 8 h; mean ± SEM
valueKind: concentration at 8 h (ng/mL)

- molecularString: "CCN(C)S(=O)(=O)Nc1ccc(F)c(Oc2ccc3ncn([C@H]4COC5(CCN(C6CC7(C6)CN(c6cc8c(cc6F)c(N6CCC(=O)NC6=O)nn8C)C7)CC5)C4)c(=O)c3c2)c1C#N"
  valueKind: "concentration at 8 h"
  measurementUnit: "ng/mL"
  observedValue: 2060

* * *

testTarget: BRAF V600E (Homo sapiens, UniProt P15056+Q96SW2, V600E)
Construct: knock-in of the HiBiT tag to the endogenous BRAF V600E locus; host or cells: A375.10 (A375 clonal line, CRISPR HiBiT knock-in at the endogenous BRAF V600E locus)
Sequence (P15056 whole entry V600E): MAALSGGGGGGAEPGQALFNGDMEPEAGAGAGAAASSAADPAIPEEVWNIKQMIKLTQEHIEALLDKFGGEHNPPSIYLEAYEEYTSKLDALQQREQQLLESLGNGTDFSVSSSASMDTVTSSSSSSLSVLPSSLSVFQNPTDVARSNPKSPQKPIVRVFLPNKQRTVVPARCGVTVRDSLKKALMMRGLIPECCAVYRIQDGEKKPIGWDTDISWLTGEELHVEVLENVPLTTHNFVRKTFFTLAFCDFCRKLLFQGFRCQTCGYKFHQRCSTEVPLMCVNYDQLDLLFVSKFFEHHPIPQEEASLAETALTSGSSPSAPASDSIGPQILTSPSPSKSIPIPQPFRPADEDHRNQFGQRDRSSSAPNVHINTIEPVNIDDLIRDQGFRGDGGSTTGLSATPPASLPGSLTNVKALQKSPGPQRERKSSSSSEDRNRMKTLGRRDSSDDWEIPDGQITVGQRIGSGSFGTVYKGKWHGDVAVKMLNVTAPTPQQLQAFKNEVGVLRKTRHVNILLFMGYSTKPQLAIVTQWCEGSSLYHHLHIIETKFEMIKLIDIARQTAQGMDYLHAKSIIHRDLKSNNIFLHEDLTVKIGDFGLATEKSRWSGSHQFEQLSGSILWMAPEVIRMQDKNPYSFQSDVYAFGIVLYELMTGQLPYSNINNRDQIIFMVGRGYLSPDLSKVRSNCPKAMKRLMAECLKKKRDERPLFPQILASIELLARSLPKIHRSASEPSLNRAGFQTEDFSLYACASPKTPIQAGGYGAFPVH
Sequence (Q96SW2 whole entry): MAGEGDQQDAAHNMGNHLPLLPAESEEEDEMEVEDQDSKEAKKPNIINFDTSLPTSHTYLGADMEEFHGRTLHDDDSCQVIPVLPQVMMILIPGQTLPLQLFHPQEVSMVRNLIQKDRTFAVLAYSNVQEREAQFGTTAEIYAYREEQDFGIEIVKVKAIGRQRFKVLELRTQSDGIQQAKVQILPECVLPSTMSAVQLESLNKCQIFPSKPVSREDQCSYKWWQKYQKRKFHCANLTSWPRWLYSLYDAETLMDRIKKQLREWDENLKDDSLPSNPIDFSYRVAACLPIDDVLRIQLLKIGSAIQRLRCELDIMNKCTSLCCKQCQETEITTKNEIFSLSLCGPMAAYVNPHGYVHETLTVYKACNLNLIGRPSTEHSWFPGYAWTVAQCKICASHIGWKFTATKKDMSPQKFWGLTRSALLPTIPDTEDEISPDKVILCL
Sequence (Q16531 whole entry partner): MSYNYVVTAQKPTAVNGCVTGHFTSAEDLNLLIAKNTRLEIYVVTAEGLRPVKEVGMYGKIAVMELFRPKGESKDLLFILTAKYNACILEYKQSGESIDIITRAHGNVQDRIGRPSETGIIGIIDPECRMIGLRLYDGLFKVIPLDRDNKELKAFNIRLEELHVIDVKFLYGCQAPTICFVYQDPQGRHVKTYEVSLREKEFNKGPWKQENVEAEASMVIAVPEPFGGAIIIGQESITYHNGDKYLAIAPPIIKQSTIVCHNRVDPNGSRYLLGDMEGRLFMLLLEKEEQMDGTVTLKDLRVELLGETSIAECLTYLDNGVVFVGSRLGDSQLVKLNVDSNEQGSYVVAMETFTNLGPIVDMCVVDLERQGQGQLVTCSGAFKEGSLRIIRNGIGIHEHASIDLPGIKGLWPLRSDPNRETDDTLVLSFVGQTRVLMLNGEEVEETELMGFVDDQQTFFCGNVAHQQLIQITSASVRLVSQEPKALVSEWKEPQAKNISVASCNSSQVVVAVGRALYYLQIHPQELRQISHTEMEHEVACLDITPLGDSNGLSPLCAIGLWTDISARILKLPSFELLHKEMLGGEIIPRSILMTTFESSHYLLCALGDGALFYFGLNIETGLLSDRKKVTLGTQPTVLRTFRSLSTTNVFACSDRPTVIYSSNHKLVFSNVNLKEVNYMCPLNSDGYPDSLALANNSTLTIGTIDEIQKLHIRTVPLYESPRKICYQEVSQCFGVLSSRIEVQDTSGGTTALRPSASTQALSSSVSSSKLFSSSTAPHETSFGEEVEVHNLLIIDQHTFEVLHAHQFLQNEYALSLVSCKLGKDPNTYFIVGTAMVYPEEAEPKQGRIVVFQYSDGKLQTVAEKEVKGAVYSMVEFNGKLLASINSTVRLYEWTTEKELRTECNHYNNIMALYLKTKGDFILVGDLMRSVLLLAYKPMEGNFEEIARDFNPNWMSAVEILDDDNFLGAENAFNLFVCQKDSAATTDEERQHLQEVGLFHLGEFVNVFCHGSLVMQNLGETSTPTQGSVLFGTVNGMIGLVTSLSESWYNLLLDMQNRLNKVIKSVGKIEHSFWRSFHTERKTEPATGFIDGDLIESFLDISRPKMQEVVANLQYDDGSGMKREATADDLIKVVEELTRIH
experimentSummary: BRAF V600E HiBiT Degradation Assay
Type: cell-based
measurementParameters: A375.10 cells, BRAF V600E, 2 hours; residual protein remaining; read-out: HiBiT-Degradation A375.10 BRAF 2 hours Emax
Catalogue of Emax values

- compound: "CCN(C)S(=O)(=O)Nc1ccc(F)c(Oc2ccc3ncn([C@H]4COC5(CCC(N6CCC(c7ccc(NC8CCC(=O)NC8=O)cc7F)C(F)(F)C6)CC5)C4)c(=O)c3c2)c1C#N (single isomer, unassigned) [Compound 190]"
  Emax: "< 50%"
- compound: "CO[C@@H]1CCN(S(=O)(=O)Nc2ccc(F)c(Oc3ccc4ncc(C5CC6(CCN(C7CC8(C7)CN(c7cc9c(cc7F)c(N7CCC(=O)NC7=O)nn9C)C8)CC6)C5)nc4c3)c2C#N)C1 (stereo partly drawn) [Compound 278]"
  Emax: "< 50%"
- compound: "CCN(C)S(=O)(=O)Nc1ccc(F)c(C(=O)c2ccc3ncn(C4CC5(CCN(C6CC7(C6)CN(c6cc8c(cc6F)c(N6CCC(=O)NC6=O)nn8C)C7)CC5)C4)c(=O)c3c2)c1F (stereo not drawn) [Compound 304]"
  Emax: "50 to 90%"

* * *

Here, each record is paired with measured DC50 data.
testTarget: BRAF V600E (Homo sapiens, UniProt P15056+Q96SW2, V600E)
Construct: knock-in of the HiBiT tag to the endogenous BRAF V600E locus; host or cells: A375.10 (A375 clonal line, CRISPR HiBiT knock-in at the endogenous BRAF V600E locus)
experimentSummary: BRAF V600E HiBiT Degradation Assay
Format: cell-based
measurementParameters: A375.10 cells, BRAF V600E, 6 hours; inflection point; read-out: HiBiT-Degradation A375.10 BRAF 6 hours IP
valueKind: DC50

- compound: "CCN(C)S(=O)(=O)Nc1ccc(F)c(Nc2ccc3ncn([C@H]4COC5(CCN(C6CCC(c7ccc(NC8CCC(=O)NC8=O)cc7F)CC6)CC5)C4)c(=O)c3c2F)c1C#N (single isomer, unassigned)"
  valueKind: "DC50"
  observedValue: "< 1 µM"
- compound: "CCN(C)S(=O)(=O)Nc1ccc(F)c(Oc2ccc3ncn([C@@H]4C[C@@H]5CN(C6CCC(c7ccc(NC8CCC(=O)NC8=O)cc7F)CC6)C[C@@H]5C4)c(=O)c3c2)c1C#N (single isomer, unassigned)"
  valueKind: "DC50"
  observedValue: "< 1 µM"

* * *

experimentSummary: Pharmacokinetics in female BALB/c nude mice bearing A375 xenografts, 1 day dosing (PK and PD study): plasma, tumor and brain concentrations, AUC
Format: in vivo
measurementParameters: mouse, plasma, po, 1 mg/kg, 1 mg/kg p.o. TID × 1 day; post 1st dose; 0.5 h; read-out: Mean Concentration in Plasma ± SEM
valueKind: concentration at 0.5 h (µg/mL)

- compound: "CCN(C)S(=O)(=O)Nc1ccc(F)c(Oc2ccc3ncn(C4CC5(CCN(C6CC7(C6)CN(c6cc8c(cc6F)c(N6CCC(=O)NC6=O)nn8C)C7)CC5)C4)c(=O)c3c2)c1C#N (stereo not shown) [Compound 141]"
  observedValue: 0.836

* * *

experimentSummary: Pharmacokinetics in female BALB/c nude mice bearing A375 xenografts, 1 day dosing (PK and PD study): plasma, tumor and brain concentrations, AUC
Assay type: in vivo
measurementParameters: mouse, plasma, po, 1.5 mg/kg, Compound 141; 1.5 mg/kg p.o. BID × 1 day; post 2nd dose; 2 h; read-out: Mean Concentration in Plasma ± SEM
valueKind: concentration at 2 h

- compound: "CCN(C)S(=O)(=O)Nc1ccc(F)c(Oc2ccc3ncn(C4CC5(CCN(C6CC7(C6)CN(c6cc8c(cc6F)c(N6CCC(=O)NC6=O)nn8C)C7)CC5)C4)c(=O)c3c2)c1C#N (stereo not shown)"
  observedValue: "1550 ng/mL"

* * *

experimentSummary: Pharmacokinetics in female BALB/c nude mice bearing A375 xenografts, 1 day dosing (PK and PD study): plasma, tumor and brain concentrations, AUC
Type: in vivo
measurementParameters: mouse, tumor, po, 1.5 mg/kg, Compound 141; 1.5 mg/kg p.o. BID × 1 day; post 2nd dose; 1 h; read-out: Mean Concentration in Tumor ± SEM

- compound: "CCN(C)S(=O)(=O)Nc1ccc(F)c(Oc2ccc3ncn(C4CC5(CCN(C6CC7(C6)CN(c6cc8c(cc6F)c(N6CCC(=O)NC6=O)nn8C)C7)CC5)C4)c(=O)c3c2)c1C#N (stereo not shown)"
  measurementUnit: "ng/g"
  concentration at 1 h: 239

* * *

testTarget: BRAF V600E (Homo sapiens, UniProt P15056+Q96SW2, V600E)
Construct: knock-in of the HiBiT tag to the endogenous BRAF V600E locus; host or cells: A375.10 (A375 clonal line, CRISPR HiBiT knock-in at the endogenous BRAF V600E locus)
experimentSummary: BRAF V600E HiBiT Degradation Assay
Type: cell-based
measurementParameters: read-out: HiBiT-Degradation A375.10 BRAF 2 hours IP; A375.10 cells, BRAF V600E, 2 hours; inflection point
valueKind: DC50

- molecule: "Cn1nc(N2CCC(=O)NC2=O)c2cc(F)c(C3CCC(N4CCC5(CC4)CC(c4cnc6ccc(Oc7c(F)ccc(NS(=O)(=O)C8CCCC8)c7C#N)cc6n4)C5)CC3)cc21 (single isomer, unassigned) [Compound 271]"
  valueKind: "DC50"
  observedValue: "< 1000 nM"
- molecule: "CCN(C)S(=O)(=O)Nc1ccc(F)c(Oc2ccc3ncn([C@H]4COC5(CCC(N6CCN(c7ccc(NC8CCC(=O)NC8=O)cc7F)CC6)CC5)C4)c(=O)c3c2)c1C#N (stereo partly shown)"
  valueKind: "DC50"
  observedValue: "< 1000 nM"
- molecule: "CCN(C)S(=O)(=O)Nc1ccc(F)c(Oc2ccc3ncn([C@H]4COC5(CCN(C6CC7(C6)CN(c6ccc(NC8CCC(=O)NC8=O)cc6F)C7)CC5)C4)c(=O)c3c2)c1F (stereo partly shown)"
  valueKind: "DC50"
  observedValue: "< 1000 nM"
- molecule: "CCN(C)S(=O)(=O)Nc1ccc(F)c(Oc2ccc3ncn([C@H]4COC5(CCN(C6CC7(C6)CN(c6cc8c(cc6F)c(N6CCC(=O)NC6=O)nn8C)C7)CC5)C4)c(=O)c3c2)c1F"
  valueKind: "DC50"
  observedValue: "< 1000 nM"
- molecule: "CO[C@H]1CCN(S(=O)(=O)Nc2ccc(F)c(Oc3ccc4ncn(C5CC6(CCN(C7CC8(C7)CN(c7cc9c(cc7F)c(N7CCC(=O)NC7=O)nn9C)C8)CC6)C5)c(=O)c4c3)c2C#N)C1 (stereo partly shown)"
  valueKind: "DC50"
  observedValue: "< 1000 nM"
- molecule: "Cn1nc(N2CCC(=O)NC2=O)c2cc(F)c(N3CC4(CC(N5CCC6(CC5)CC(n5cnc7ccc(Oc8c(F)ccc(NS(=O)(=O)C9CC9)c8C#N)cc7c5=O)C6)C4)C3)cc21"
  valueKind: "DC50"
  observedValue: "< 1000 nM"
- molecule: "Cn1nc(N2CCC(=O)NC2=O)c2cc(F)c(C3CCC(N4CCC5(CC4)CC(c4cnc6ccc(Oc7c(F)ccc(NS(=O)(=O)C8CCCC8)c7C#N)cc6n4)C5)CC3)cc21 (single isomer, unassigned) [Compound 270]"
  valueKind: "DC50"
  observedValue: "< 1000 nM"
- molecule: "CC(C)S(=O)(=O)Nc1ccc(F)c(Oc2ccc3ncc(C4CC5(CCN(C6CC7(C6)CN(c6cc8c(cc6F)c(N6CCC(=O)NC6=O)nn8C)C7)CC5)C4)nc3c2)c1C#N (stereo not shown)"
  valueKind: "DC50"
  observedValue: "< 1000 nM"
- molecule: "Cn1nc(N2CCC(=O)NC2=O)c2cc(F)c(N3CC4(CC(N5CCC6(CC5)C[C@@H](n5cnc7ccc(Oc8c(F)ccc(NS(=O)(=O)N9CCC%10(CC%10)C9)c8C#N)cc7c5=O)CO6)C4)C3)cc21"
  valueKind: "DC50"
  observedValue: "< 1000 nM"
- molecule: "Cn1nc(N2CCC(=O)NC2=O)c2cc(F)c(N3CC4(CC(N5CCC6(CC5)CC(n5cnc7ccc(Oc8c(F)ccc(NS(=O)(=O)N9CC[C@@H](F)C9)c8C#N)cc7c5=O)C6)C4)C3)cc21"
  valueKind: "DC50"
  observedValue: "< 1000 nM"
